These data points were gathered from patent US20250388666A1.

- Tested target: T1, CEACAM1 (Sino Biological) (human, UniProt P13688 35-428, limits assumed)
- T1 construct: may be the same as CEACAM1-HIS; also called hCEACAM1; biotinylated soluble CEACAM1
- T1 sequence: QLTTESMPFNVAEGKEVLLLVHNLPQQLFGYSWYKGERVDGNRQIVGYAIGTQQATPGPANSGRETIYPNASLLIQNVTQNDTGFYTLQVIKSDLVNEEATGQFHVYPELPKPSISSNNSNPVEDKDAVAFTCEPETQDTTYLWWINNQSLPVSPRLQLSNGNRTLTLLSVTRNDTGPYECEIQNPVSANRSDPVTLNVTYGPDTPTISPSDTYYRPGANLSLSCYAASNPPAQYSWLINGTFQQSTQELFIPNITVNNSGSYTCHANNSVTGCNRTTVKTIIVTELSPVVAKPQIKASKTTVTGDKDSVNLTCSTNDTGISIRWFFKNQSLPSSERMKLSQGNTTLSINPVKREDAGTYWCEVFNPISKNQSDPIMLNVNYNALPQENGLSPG
- Procedure summary: SPR multi-cycle, IgG on Protein A
Value type: koff (s⁻¹)

1) He9/L4#2 (antibody, IgG4, V domains shown, IgG4 S241P, kappa) VH: EVQLLESGGGLVQPGGSLRLSCAASGFSFSDYYLYWVRQAPGKGLEWVATISVGGGQTSYADSVKGRFTISRDNSKNTLYLQMNSLRAEDTAMYYCARAMYYGPAWFAYWGQGTLVTVSS VL: DIVMTQSPDSLAVSLGERATINCKSSQSLLNSANQKNYLAWYQQKPGQPPKLLIYFASTRESGVPDRFSGSGSGTDFTLTISSLQAEDVAVYYCQSHYPYPYTFGGGTKVEIK = 0.0013
